Assay: chemical genetic growth profiling, strain panel (AID 1159580);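 further: tested at 20 µM; growth read once vehicle control cultures reached saturation at 30 °C; lower values mean less growth of the strain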
Conditions: S. cerevisiae deletion strains, growth OD, locus YJL168C, strain set2
The whole screen tested about 5,500 compounds, of which about 2,000 (36%) were called active. Inconclusive results (about 18%) are left out. No stated cut-off is given here; in the data, active means normalized growth mostly below about 0.91 (no sharp cut-off); inconclusive means no clear call, values can overlap the other calls; inactive means mostly above about 0.92. This is one part of the list.
Hello, when you answer, please use one of the following outcomes: True (active), False (inactive)

Below are worked cases with known answers.
CC(=O)OCC(=O)[C@@]12OC3(CCCC3)O[C@@H]1CC1C3CCC4=CC(=O)C=C[C@]4(C)[C@@]3(F)[C@@H](O)C[C@@]12C (stereo partly specified) | False
CC(=O)OCC(=O)[C@@]1(O)CCC2C3CCC4=CC(=O)CC[C@]4(C)C3[C@@H](O)C[C@@]21C (stereo partly specified) | False
CC(NCCC(c1ccccc1)c1ccccc1)c1ccccc1 (stereo unspecified) | False

query: Recorded test call requested for COc1cc2c(cc1OC)[C@@H]1C(=O)c3ccc4c(c3O[C@@H]1CO2)CC(C(C)C)O4 (stereo partly specified)
result: False

query: And O=C(O)c1cc(=O)c2c(Cl)cc(Cl)cc2[nH]1 ?
result: False

query: And CC1=C(O)C(=O)C=C2C1=CC=C1[C@@]2(C)CC[C@@]2(C)[C@@H]3C[C@](C)(C(=O)O)CC[C@]3(C)CC[C@]12C ?
result: True

query: And COc1cnc(NS(=O)(=O)c2ccc(N)cc2)nc1 ?
result: False

query: And C=C(C)[C@H]1Cc2c(ccc3c2O[C@@H]2COc4cc(OC)c(OC)cc4[C@@H]2C3=O)O1 ?
result: False

query: And NC(=O)NO ?
result: False

query: And COc1cc(-c2oc3cc(O)ccc3c(=O)c2O)cc(OC)c1OC ?
result: False

query: And CCCCc1nc(Cl)c(CO)n1Cc1ccc(-c2ccccc2-c2nn[nH]n2)cc1 ?
result: False

query: And CC(=O)NO ?
result: False

query: And CCN(CC)CCNC(=O)c1cc(Cl)c(N)cc1OC ?
result: False

query: And CC(=O)[C@@]1(O)CCC2C3CCC4=CC(=O)CC[C@]4(C)C3CC[C@@]21C (stereo partly specified) ?
result: False

query: And COC(=O)C[C@H]1C(C)(C)[C@@H](O)[C@@H]2CC3=C4C=C(OC)O[C@@H](c5ccoc5)[C@]4(C)CCC3[C@@]1(C)C2=O (stereo partly specified) ?
result: False

query: And C[C@]12CCC(=O)C=C1CCC1C2[C@@H](O)C[C@@]2(C)C1CC[C@]2(O)C(=O)COC(=O)CCC(=O)O (stereo partly specified) ?
result: False

query: And CC1=CC(=O)C2=C(C)CC(O)C3C(C)C(=O)OC3C12 (stereo unspecified) ?
result: False

query: And O=c1c(O)c(-c2ccc(O)c(O)c2)oc2cc(O)ccc12 ?
result: False

query: And COc1cc2c(cc1OC)-c1c(oc3c4c(ccc3c1=O)OC(C(C)C)C4)CO2 (stereo unspecified) ?
result: False

query: And O=C(O)c1cc(=O)c2cccc(O)c2[nH]1 ?
result: False

query: And CC1=CC2C(C(C)C)CCC(C)(O)C2CC1 (stereo unspecified) ?
result: False
